# System: Aspergillus niger
# assay remarks: Antifungal activity against Aspergillus niger MTCC 281 after 2 to 3 days by agar well diffusion method
# Assay type: functional
Recorded MIC values for a group of molecules are listed next.
readout: MIC (µg/mL)

# molecule, observed result
records = [
    ("COc1ccc(C2=NN(C(C)=O)C(c3ccc(NS(=O)(=O)c4ccc(C)cc4)cc3)C2)cc1OC (stereo not drawn)", 90),
    ("COc1ccc(C2=NN(C(C)=O)C(c3ccc(NS(=O)(=O)c4ccc(C(F)(F)F)cc4Cl)cc3)C2)cc1OC (stereo not drawn)", 15),
    ("COc1ccc(C2=NN(C(C)=O)C(c3ccc(NC(=O)Nc4ccccc4C(F)(F)F)cc3)C2)cc1OC (stereo not drawn)", 90),
    ("COc1ccc(C2=NN(C(C)=O)C(c3ccc(NC(=O)Nc4ccccc4F)cc3)C2)cc1OC (stereo not drawn)", 80),
    ("COc1ccc(C2=NN(C(C)=O)C(c3ccc(NS(=O)(=O)c4ccc(C(F)(F)F)cc4)cc3)C2)cc1OC (stereo not drawn)", 20),
    ("COc1ccc(C2=NN(C(C)=O)C(c3ccc([N+](=O)[O-])cc3)C2)cc1OC (stereo not drawn)", 90),
    ("COc1cccc(NC(=S)Nc2ccc(C3CC(c4ccc(OC)c(OC)c4)=NN3C(C)=O)cc2)c1 (stereo not drawn)", 95),
    ("COc1ccc(C2=NN(C(C)=O)C(c3ccc(NS(=O)(=O)c4ccc(OC(F)(F)F)cc4)cc3)C2)cc1OC (stereo not drawn)", 25),
]

---

# Test system: Escherichia coli
# assay remarks: Antibacterial activity against Escherichia coli MTCC 443 after 24 hrs by agar well diffusion method
# Format: functional
# condition notes: MTCC 443, 24 h

# molecule, MIC
records = [
    ("COc1ccc(C2=NN(C(C)=O)C(c3ccc(N)cc3)C2)cc1OC (centres undefined)", "90 µg/mL"),
    ("COc1ccc(C2=NN(C(C)=O)C(c3ccc(NC(=O)Nc4cccc(Cl)c4F)cc3)C2)cc1OC (centres undefined)", "90 µg/mL"),
    ("O=C(O)c1cn(C2CC2)c2cc(N3CCNCC3)c(F)cc2c1=O [CIPROFLOXACIN]", "15 µg/mL"),
    ("COc1ccc(C2=NN(C(C)=O)C(c3ccc(NS(=O)(=O)c4ccccc4C#N)cc3)C2)cc1OC (centres undefined)", "90 µg/mL"),
    ("COc1ccc(C2=NN(C(C)=O)C(c3ccc(NC(=O)Nc4ccccc4OC(F)(F)F)cc3)C2)cc1OC (centres undefined)", "40 µg/mL"),
    ("COc1ccc(C2=NN(C(C)=O)C(c3ccc([N+](=O)[O-])cc3)C2)cc1OC (centres undefined)", "65 µg/mL"),
    ("COc1ccc(C2=NN(C(C)=O)C(c3ccc(NS(=O)(=O)c4ccc(Br)cc4)cc3)C2)cc1OC (centres undefined)", "30 µg/mL"),
    ("COc1ccc(C2=NN(C(C)=O)C(c3ccc(NC(=O)Nc4ccc(C(F)(F)F)cc4)cc3)C2)cc1OC (centres undefined)", "15 µg/mL"),
    ("COc1ccc(C2=NN(C(C)=O)C(c3ccc(NS(=O)(=O)c4ccc(C(F)(F)F)cc4Br)cc3)C2)cc1OC (centres undefined)", "10 µg/mL"),
]

---

# Tested on: Bacillus subtilis
# assay remarks: Antibacterial activity against Bacillus subtilis MTCC 441 after 24 hrs by agar well diffusion method
# Assay type: functional
# condition notes: MTCC 441, 24 h

# molecule, MIC, mg/L
rows = [
    ("COc1cccc(NC(=S)Nc2ccc(C3CC(c4ccc(OC)c(OC)c4)=NN3C(C)=O)cc2)c1 (centres undefined)", 90),
    ("COc1ccc(C2=NN(C(C)=O)C(c3ccc(NC(=O)Nc4ccc(C(C)C)cc4)cc3)C2)cc1OC (centres undefined)", 40),
    ("COc1ccc(C2=NN(C(C)=O)C(c3ccc(NS(=O)(=O)c4ccc(C(F)(F)F)cc4Cl)cc3)C2)cc1OC (centres undefined)", 10),
    ("COc1ccc(C2=NN(C(C)=O)C(c3ccc(NC(=O)Nc4ccc(OC(F)(F)F)cc4)cc3)C2)cc1OC (centres undefined)", 20),
]

---

# Test system: Aspergillus niger
# assay remarks: Antifungal activity against Aspergillus niger MTCC 281 after 2 to 3 days by agar well diffusion method
# Format: functional
Recorded MIC values for a group of compounds are listed next.

# compound, MIC [µg/mL]
rows = [
    ("COc1ccc(C2=NN(C(C)=O)C(c3ccc(NS(=O)(=O)c4ccccc4C#N)cc3)C2)cc1OC (stereo not drawn)", 40),
    ("COc1ccc(C2=NN(C(C)=O)C(c3ccc(NC(=O)Nc4ccccc4OC(F)(F)F)cc3)C2)cc1OC (stereo not drawn)", 75),
    ("COc1ccc(C2=NN(C(C)=O)C(c3ccc(NC(=S)Nc4ccc(C#N)cc4)cc3)C2)cc1OC (stereo not drawn)", 20),
]

---

# System: Salmonella typhimurium
# assay remarks: Antibacterial activity against Salmonella typhimurium MTCC 98 after 24 hrs by agar well diffusion method
# Type: functional, Salmonella enterica subsp. enterica serovar Typhimurium
# condition notes: Salmonella enterica, MTCC 98, 24 h
Recorded MIC values for a group of compounds are listed next.

# compound, system name, MIC (µg/mL)
rows = [
    ("COc1ccc(NC(=S)Nc2ccc(C3CC(c4ccc(OC)c(OC)c4)=NN3C(C)=O)cc2)cc1 (configuration not stated)", "Salmonella typhimurium", 35),
    ("O=C(O)c1cn(C2CC2)c2cc(N3CCNCC3)c(F)cc2c1=O", "Salmonella typhimurium", 20),
    ("COc1ccc(C2=NN(C(C)=O)C(c3ccc(NC(=S)Nc4ccccc4F)cc3)C2)cc1OC (configuration not stated)", "Salmonella typhimurium", 90),
    ("COc1ccc(C2=NN(C(C)=O)C(c3ccc(NS(=O)(=O)c4ccccc4C#N)cc3)C2)cc1OC (configuration not stated)", "Salmonella typhimurium", 90),
    ("COc1ccc(C2=NN(C(C)=O)C(c3ccc(NS(=O)(=O)c4ccc(OC)c(OC)c4)cc3)C2)cc1OC (configuration not stated)", "Salmonella typhimurium", 90),
    ("COc1ccc(C(=O)/C=C/c2ccc([N+](=O)[O-])cc2)cc1OC", "Salmonella typhimurium", 90),
    ("COc1cccc(NC(=S)Nc2ccc(C3CC(c4ccc(OC)c(OC)c4)=NN3C(C)=O)cc2)c1 (configuration not stated)", "Salmonella typhimurium", 90),
]

---

# Test system: Aspergillus niger
# assay remarks: Antifungal activity against Aspergillus niger MTCC 281 after 2 to 3 days by agar well diffusion method
# Type: functional
readout: MIC (µg/mL)

# compound, observed result
data = [
    ("COc1ccc(C2=NN(C(C)=O)C(c3ccc(NC(=O)Nc4ccc(OC(F)(F)F)cc4)cc3)C2)cc1OC (stereo not drawn)", 35),
    ("COc1ccc(C2=NN(C(C)=O)C(c3ccc(NS(=O)(=O)c4ccc(Br)cc4)cc3)C2)cc1OC (stereo not drawn)", 15),
    ("COc1ccc(C2=NN(C(C)=O)C(c3ccc(NC(=O)Nc4ccc(C(F)(F)F)cc4Cl)cc3)C2)cc1OC (stereo not drawn)", 35),
    ("COc1ccc(C2=NN(C(C)=O)C(c3ccc(NC(=O)Nc4ccc(C(F)(F)F)cc4)cc3)C2)cc1OC (stereo not drawn)", 25),
    ("COc1ccc(C2=NN(C(C)=O)C(c3ccc(NC(=O)Nc4ccc(C(C)C)cc4)cc3)C2)cc1OC (stereo not drawn)", 40),
    ("Clc1ccc(COC(Cn2ccnc2)c2ccc(Cl)cc2Cl)c(Cl)c1 (stereo not drawn) [MICONAZOLE]", 15),
    ("COc1ccc(C2=NN(C(C)=O)C(c3ccc(NS(=O)(=O)c4ccc(C(F)(F)F)cc4Br)cc3)C2)cc1OC (stereo not drawn)", 10),
    ("COc1ccc(C2=NN(C(C)=O)C(c3ccc(NS(=O)(=O)c4cc(F)ccc4C)cc3)C2)cc1OC (stereo not drawn)", 60),
]

---

# Tested on: Bacillus subtilis
# assay remarks: Antibacterial activity against Bacillus subtilis MTCC 441 after 24 hrs by agar well diffusion method
# Assay type: functional
# condition notes: MTCC 441, 24 h
MIC strictly less than 60 µg/mL = MET. Otherwise NOT MET.

# compound, class label
rows = [
    ("COc1ccc(C2=NN(C(C)=O)C(c3ccc([N+](=O)[O-])cc3)C2)cc1OC (centres undefined)", "MET"),
    ("COc1ccc(C2=NN(C(C)=O)C(c3ccc(NS(=O)(=O)c4ccccc4C#N)cc3)C2)cc1OC (centres undefined)", "NOT MET"),
    ("COc1ccc(C(=O)/C=C/c2ccc([N+](=O)[O-])cc2)cc1OC", "NOT MET"),
    ("COc1ccc(C2=NN(C(C)=O)C(c3ccc(NC(=O)Nc4ccccc4C(F)(F)F)cc3)C2)cc1OC (centres undefined)", "NOT MET"),
    ("COc1ccc(C2=NN(C(C)=O)C(c3ccc(NC(=O)Nc4ccccc4F)cc3)C2)cc1OC (centres undefined)", "NOT MET"),
    ("COc1ccc(C2=NN(C(C)=O)C(c3ccc(NS(=O)(=O)c4ccc(C)cc4)cc3)C2)cc1OC (centres undefined)", "NOT MET"),
    ("COc1ccc(C2=NN(C(C)=O)C(c3ccc(NS(=O)(=O)c4cc(F)ccc4C)cc3)C2)cc1OC (centres undefined)", "MET"),
    ("COc1ccc(C2=NN(C(C)=O)C(c3ccc(NC(=O)Nc4ccccc4OC(F)(F)F)cc3)C2)cc1OC (centres undefined)", "MET"),
]
